The measurements presented in this section are drawn from patent US12324810B2.

- study.target: full-length tau (T40) in fibroblast cells (3T6) (Homo sapiens, UniProt P10636)
- Construct: fibroblast cells (3T6) express full-length tau (“T40”) under control of an inducible promoter; low constitutive levels of the PHF-core tau fragment (12 kD fragment); expressed in transfected cells; host or cells: 3T6 fibroblast cells
- Sequence (P10636 2-441 isoform P10636-8 limits assumed): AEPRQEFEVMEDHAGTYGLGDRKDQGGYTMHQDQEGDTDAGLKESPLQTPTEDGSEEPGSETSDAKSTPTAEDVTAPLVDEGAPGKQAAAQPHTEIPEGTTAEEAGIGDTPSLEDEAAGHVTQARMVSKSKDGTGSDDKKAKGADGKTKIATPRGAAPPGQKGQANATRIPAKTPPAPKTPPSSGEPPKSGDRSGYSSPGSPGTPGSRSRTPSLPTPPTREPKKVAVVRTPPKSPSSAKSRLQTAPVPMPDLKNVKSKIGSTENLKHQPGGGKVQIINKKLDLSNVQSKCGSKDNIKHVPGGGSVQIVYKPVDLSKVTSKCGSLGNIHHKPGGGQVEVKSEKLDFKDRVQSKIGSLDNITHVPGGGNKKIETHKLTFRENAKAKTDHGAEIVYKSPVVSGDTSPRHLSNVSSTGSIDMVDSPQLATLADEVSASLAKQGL
- test.details: Cell-based assay for establishing EC50 (generation of the 12 kD fragment)
- condition.parameters: concentration at which there is a 50% inhibition of generation of the 12 kD fragment; 3T6 cells; read-out: EC50
Please respond with reported EC50 for every item in the list.
Numbers only here, please. The scale is µM.

In: Need EC50, item "Nc1ccc2c(c1)Sc1cc(N)ccc1N2"
Out: 2.23

In: Same for "CN(C)c1ccc2c(c1)Sc1cc(N(C)C)ccc1N2"
Out: 0.5
